melting point: recorded values
property_label: melting point

1) O=C(NCC(O)CO)c1c(I)c(C(=O)NCC(O)CO)c(I)c(N(CCCN(C(=O)CO)c2c(I)c(C(=O)NCC(O)CO)c(I)c(C(=O)NCC(O)CO)c2I)C(=O)CO)c1I (stereo not drawn) | 234 to 236 °C
2) Ic1cc(I)c(OCCOc2c(I)cc(I)cc2I)c(I)c1 | 288 to 289 °C
3) CC(=O)OC1C(=O)C2(C)C(O)CC3OCC3(OC(C)=O)C2C(OC(=O)c2ccccc2)C23OC(=O)OC2C(OC(=O)C(O)C(CC(C)C)NC(=O)OC(C)(C)C)C(C)=C1C3(C)C (stereo not drawn) | 159 °C

----------
Residues, ends and D or L forms follow the SMILES beside them. *: point of attachment. Cyclohexanecarbonyl = O=C(C1CCCCC1)*; Bn = c1ccc(C*)cc1
property_label: melting point

1) CCCCCCCCNC1(NC(=O)c2ccccc2-c2ccc(CCCCCCCC)cc2)CC(CCCC)=C(NC(=O)c2ccccc2-c2ccc(CCCCCCCC)cc2)C2=C1C(=O)c1ccccc1C2=O (configuration not stated) | 94 to 95 °C
2) CC(C)(C)c1cc(CCC(=O)OCCOc2ccc(C(C)(C)c3ccc(OCCOC(=O)CCc4cc(C(C)(C)C)c(O)c(C(C)(C)C)c4)cc3)cc2)cc(C(C)(C)C)c1O | 104 to 106 °C
3) Cc1c(NC(=O)c2cccc(OCC(=O)NCCNC(=O)COc3cccc(C(=O)O)c3)c2)c2ccccn2c1C(=O)c1ccc(NC(=O)C(F)(F)F)c(C(=O)OCc2ccccc2)c1 | 197 °C
4) COC(=O)C(CC(C)C)NC(=O)C(Cc1ccc(OCc2ccccc2)cc1)NC(=O)C(COCc1ccccc1)NC(=O)C(Cc1c[nH]c2ccccc12)NC(=O)C1CCCCC1 (Cyclohexanecarbonyl-WS(Bn)Y(Bn)L-OMe; configuration not given here) | 158 to 160 °C
5) [C-]#[N+]CS(=O)c1ccccn1 (configuration not stated) | 91 to 93 °C
6) O=C(O)CCOC1COCCCC=CC2CC2(C(=O)NS(=O)(=O)C2CC2)NC(=O)C2(NC(=O)Nc3ccccc3)CC(OC(=O)N(CCC(=O)O)c3ccccc3)CN2C1=O (configuration not stated) | 142 to 144 °C
7) CCCCc1nn(-c2cc(NC(=O)c3ccccc3)ccc2C(F)(F)F)c(=O)n1Cc1ccc(-c2ccccc2S(=O)(=O)NC(=O)c2ccccc2Cl)cc1F | 210 to 212 °C
8) CCc1nc(OC)c(NC(=O)N2CCN(c3cc(C)cc(C)c3)CC2)cc1C(=O)NC(C)C(=O)Nc1cc(CO)cc(Nc2c3ccccc3nc3c(OC)cccc23)c1 (configuration not stated) | 178 to 179 °C
9) Cc1ccc(OCC(=O)O)c(C(=O)NCc2ccc(Br)cc2F)c1 | 145 to 146 °C
10) CCC(C)(C)c1ccc(OCC(=O)Nc2cccc(C(=O)Nc3[nH]n(-c4c(Cl)cc(Cl)cc4Cl)c(=O)c3-n3nnn(-c4ccccc4)c3=S)c2)c(C(C)(C)CC)c1 | 169 to 171 °C
11) CC(=O)OCC(CNC(=O)c1c(I)c(C(=O)NCC(COC(C)=O)OC(C)=O)c(I)c(N2CCCC(Br)C2=O)c1I)OC(C)=O (configuration not stated) | 232 to 235 °C
12) O=C(NCCCCCCCCCCCCNC(=O)C(O)C(O)C(OC1OC(CO)C(O)C(O)C1O)C(O)CO)C(O)C(O)C(OC1OC(CO)C(O)C(O)C1O)C(O)CO (configuration not stated) | 79 to 81 °C
